Biological target: UniProt:P70579
Sequence (P70579 whole entry): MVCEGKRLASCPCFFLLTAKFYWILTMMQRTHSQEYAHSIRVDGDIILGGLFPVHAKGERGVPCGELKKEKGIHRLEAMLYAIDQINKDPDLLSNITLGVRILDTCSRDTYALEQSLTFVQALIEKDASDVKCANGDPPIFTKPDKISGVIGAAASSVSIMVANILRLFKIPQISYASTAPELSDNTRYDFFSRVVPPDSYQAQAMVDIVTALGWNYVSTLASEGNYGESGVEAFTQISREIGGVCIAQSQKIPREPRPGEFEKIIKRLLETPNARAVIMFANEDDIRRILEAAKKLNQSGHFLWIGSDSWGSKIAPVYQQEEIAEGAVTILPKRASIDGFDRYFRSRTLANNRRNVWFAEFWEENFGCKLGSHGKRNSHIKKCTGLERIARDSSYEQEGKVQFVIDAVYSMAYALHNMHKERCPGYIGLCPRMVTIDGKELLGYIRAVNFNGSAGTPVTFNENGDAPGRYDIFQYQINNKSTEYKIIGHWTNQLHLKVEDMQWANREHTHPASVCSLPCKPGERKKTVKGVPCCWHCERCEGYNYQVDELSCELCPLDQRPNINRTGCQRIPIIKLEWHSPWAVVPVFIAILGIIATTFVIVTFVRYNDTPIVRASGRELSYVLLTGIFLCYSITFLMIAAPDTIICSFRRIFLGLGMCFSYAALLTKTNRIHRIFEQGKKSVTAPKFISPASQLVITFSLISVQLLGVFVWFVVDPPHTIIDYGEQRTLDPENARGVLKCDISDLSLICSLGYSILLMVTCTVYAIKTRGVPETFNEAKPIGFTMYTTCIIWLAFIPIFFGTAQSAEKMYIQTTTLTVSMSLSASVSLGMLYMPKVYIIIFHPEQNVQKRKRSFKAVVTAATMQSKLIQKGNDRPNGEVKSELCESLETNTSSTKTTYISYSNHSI
Test: Activity at rat mGluR8 receptor measured as intracellular calcium concentration in HEK293 cells
REPORTED PROPERTY: EC50

N[C@@]1(C(=O)O)C[C@@H](C(=O)O)N(C(=O)/C=C/C(=O)O)C1 = 56.2 µM

From here, focus on the item given below.
Return reported EC50; argument: N[C@@]1(C(=O)O)C[C@H](C(=O)O)[C@H](C(=O)O)C1
10.1 µM

* * *

Biological target: Metabotropic glutamate receptor 4 (Rattus norvegicus, UniProt P31423)
Sequence (P31423 whole entry): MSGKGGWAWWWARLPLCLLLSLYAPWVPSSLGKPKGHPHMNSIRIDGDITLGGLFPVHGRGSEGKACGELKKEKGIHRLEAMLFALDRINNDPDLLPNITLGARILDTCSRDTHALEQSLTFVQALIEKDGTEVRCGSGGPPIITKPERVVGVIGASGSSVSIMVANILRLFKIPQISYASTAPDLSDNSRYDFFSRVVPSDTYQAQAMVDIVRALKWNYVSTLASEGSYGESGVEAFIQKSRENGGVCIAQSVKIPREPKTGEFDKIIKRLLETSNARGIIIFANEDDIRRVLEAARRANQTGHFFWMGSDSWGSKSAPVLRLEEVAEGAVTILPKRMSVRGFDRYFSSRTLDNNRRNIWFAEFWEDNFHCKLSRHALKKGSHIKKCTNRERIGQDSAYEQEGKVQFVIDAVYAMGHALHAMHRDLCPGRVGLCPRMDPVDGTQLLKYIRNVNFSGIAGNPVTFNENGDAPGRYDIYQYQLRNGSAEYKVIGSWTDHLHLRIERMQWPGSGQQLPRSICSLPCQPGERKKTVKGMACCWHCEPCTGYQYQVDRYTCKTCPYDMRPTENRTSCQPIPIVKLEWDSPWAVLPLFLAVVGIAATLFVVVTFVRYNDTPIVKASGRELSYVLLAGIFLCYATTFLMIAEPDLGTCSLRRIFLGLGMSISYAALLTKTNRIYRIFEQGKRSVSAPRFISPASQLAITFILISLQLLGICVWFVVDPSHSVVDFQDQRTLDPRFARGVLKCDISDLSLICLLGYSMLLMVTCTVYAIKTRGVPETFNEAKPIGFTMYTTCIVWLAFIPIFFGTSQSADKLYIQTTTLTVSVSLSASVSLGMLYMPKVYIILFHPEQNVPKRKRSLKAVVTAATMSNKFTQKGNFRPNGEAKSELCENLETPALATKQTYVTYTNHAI
Assay: Activity at rat mGluR4 receptor measured as intracellular calcium concentration in HEK293 cells
Exercise: for every item that follows, state its recorded EC50.
Numbers only, in µM.

N[C@@]1(C(=O)O)C[C@@H](C(=O)O)N(C(=O)/C=C/C(=O)O)C1 = 48.3

From here, focus on the item given below.
Return reported EC50; argument: N[C@@]1(C(=O)O)C[C@H](C(=O)O)[C@H](C(=O)O)C1
7.2
